biological target: Prostaglandin G/H synthase 1 (Ovis aries) (UniProt P05979); test: Inhibition of ovine COX-1 by enzyme immuno assay

{"Smiles entry": "O=C(O)c1cc(-c2ccn(C(F)F)c(=O)c2)ccc1O", "IC50": "15.4 µM"}

====

ED50 for assorted compounds
test system: Rattus norvegicus; test: Antiinflammatory activity against assessed as inhibition of carrageenan-induced foot paw edema in po dosed rat after 3 hrs; type: functional

{"Smiles entry": "O=C(O)c1cc(-c2ccn(C(F)F)c(=O)c2)ccc1O", "Measured target": "Rattus norvegicus", "ED50": "434 µmol/kg"}
{"Smiles entry": "CC(=O)Oc1ccccc1C(=O)O", "Measured target": "Rattus norvegicus", "ED50": "716 µmol/kg"}
{"Smiles entry": "O=C(O)c1ccc(-c2ccn(C(F)F)c(=O)c2)cc1O", "Measured target": "Rattus norvegicus", "ED50": "497 µmol/kg"}
{"Smiles entry": "O=C(O)c1cc(-c2ccc(F)cc2F)ccc1O", "Measured target": "Rattus norvegicus", "ED50": "68 µmol/kg"}
{"Smiles entry": "CC(=O)NS(=O)(=O)c1cc(-c2ccn(C(F)F)c(=O)c2)ccc1C(=O)O", "Measured target": "Rattus norvegicus", "ED50": "258 µmol/kg"}
